- System: Plasmodium falciparum
- TEST DESCRIPTION: Antimicrobial activity against chloroquine-sensitive Plasmodium falciparum 3D7 infected in human erythrocyte assessed as parasite viability after 42 hrs by [3H]hypoxanthine incorporation based liquid scintillation counting analysis in presence of 12.5 ng/ml
- Type: functional, organism-based
RECORDED METRIC: IC50
Mention the unit after the number when you answer.

**Query** Can you look up the measured IC50 of "CC[C@@H](C)[C@@H](C(=O)N1CCN(C(=O)[C@H]([C@H](C)CC)N2C(=O)c3ccccc3C2=O)CC1)N1C(=O)c2ccccc2C1=O" for me?
**Result** 1920 nM
